Assay: Cytotoxicity against human Hs578 cells after 5 days by SRB assay
Type: functional
Conditions: Hs578, 120 h
MEASURED_PARAMETER: GI50 (µM)
I only need the number, in µM, no unit after it.

COMPOUND	READING_UNIT	GI50
C[C@H](NP(=O)(OC[C@H]1O[C@@H](n2ccc3c(-c4ccoc4)ncnc32)[C@H](O)[C@@H]1O)Oc1ccccc1)C(=O)OCc1ccccc1 (stereo partly specified)	µM	1.1
CCOC(=O)[C@H](C)NP(=O)(OC[C@H]1O[C@@H](n2ccc3c(-c4ccoc4)ncnc32)[C@H](O)[C@@H]1O)Oc1ccccc1 (stereo partly specified)	µM	5.97
C[C@H](NP(=O)(OC[C@H]1O[C@@H](n2ccc3c(-c4cccs4)ncnc32)[C@H](O)[C@@H]1O)Oc1ccccc1)C(=O)OCc1ccccc1 (stereo partly specified)	µM	1.42
CCOC(=O)[C@H](C)NP(=O)(OC[C@H]1O[C@@H](n2ccc3c(-c4cccs4)ncnc32)[C@H](O)[C@@H]1O)Oc1ccccc1 (stereo partly specified)	µM	9.6

// Input: C[C@H](NP(=O)(OC[C@H]1O[C@@H](n2ccc3c(-c4ccsc4)ncnc32)[C@H](O)[C@@H]1O)Oc1ccccc1)C(=O)OCc1ccccc1 (stereo partly specified) . Output its GI50 only.
7.56

Please report the measured GI50 for COC(=O)[C@H](C)NP(=O)(OC[C@H]1O[C@@H](n2ccc3c(-c4ccco4)ncnc32)[C@H](O)[C@@H]1O)Oc1ccccc1 (stereo partly specified)
2.31

Supply recorded GI50 for C[C@H](NP(=O)(OC[C@H]1O[C@@H](n2ccc3c(-c4ccco4)ncnc32)[C@H](O)[C@@H]1O)Oc1ccccc1)C(=O)OCc1ccccc1 (stereo partly specified) here.
1.04

Note GI50 for the compound shown: CCOC(=O)[C@H](C)NP(=O)(OC[C@H]1O[C@@H](n2ccc3c(-c4ccco4)ncnc32)[C@H](O)[C@@H]1O)Oc1ccccc1 (stereo partly specified)
2.18

---

The entries below are paired with their reported Papp B→A at 10 µM.
Experiment: Permeability from basolateral to apical side of human Caco2 cells at 10 uM after 60 to 120 mins by HPLC analysis
Assay type: ADME, cell-based
Conditions: Caco-2
Please state the figure in ×10⁻⁶ cm/s; there is no need to write the unit.

Look over these answered cases.
COMPOUND	Papp B→A at 10 µM [×10⁻⁶ cm/s]
OC[C@H]1O[C@@H](n2ccc3c(-c4cccs4)ncnc32)[C@H](O)[C@@H]1O	9.31
CCOC(=O)[C@H](C)NP(=O)(OC[C@H]1O[C@@H](n2ccc3c(-c4cccs4)ncnc32)[C@H](O)[C@@H]1O)Oc1ccccc1 (some centres undefined)	9.62
COC(=O)[C@H](C)NP(=O)(OC[C@H]1O[C@@H](n2ccc3c(-c4cccs4)ncnc32)[C@H](O)[C@@H]1O)Oc1ccccc1 (some centres undefined)	9.75

Next, consider the following compound.
Please give the documented Papp B→A at 10 µM of C[C@H](NP(=O)(OC[C@H]1O[C@@H](n2ccc3c(-c4cccs4)ncnc32)[C@H](O)[C@@H]1O)Oc1ccccc1)C(=O)OCc1ccccc1 (some centres undefined)
13.2

---

Test system: CCRF-CEM
Assay: Cytotoxicity against human CCRF-CEM cells after 3 days by XTT assay
Format: functional, cell-based
Conditions: 72 h
MEASURED_PARAMETER: pIC50
Would you please state pIC50, meaning minus log10 of the concentration in mol/L, as a bare number?

MOLECULE	SYSTEM	MEASURED_PARAMETER	REPORTED
OC[C@H]1O[C@@H](n2ccc3c(-c4cccs4)ncnc32)[C@H](O)[C@@H]1O	CCRF-CEM	pIC50	5.06

In one line, give reported pIC50 of the entry C[C@H](NP(=O)(OC[C@H]1O[C@@H](n2ccc3c(-c4ccoc4)ncnc32)[C@H](O)[C@@H]1O)Oc1ccccc1)C(=O)OCc1ccccc1 (some centres undefined) .
5.51
